- tested.on: T1, biotinylated hBLyS-ECD (human, UniProt Q9Y275 134-285, biotinylated with Biotin-X-X-NHS (molar ratio 7:1); sites not stated)
- T1 construct: also called biotinylated immunogen; biotinylated hBLvS-ECD
- procedure.text: BAFF R-coated ELISA, biotinylated hBLyS-ECD bound in presence of antibody 0.8 nM
parameter.measured: OD450 nm (OD450 nm)

binder | unit.name | test.value
h8E7D9C7F5-1 (antibody, V domains shown, Humanized antibody; also called humanized BLyS antibody h8E7D9C7F5 variant 1 (VH.1 / Vk.1)) VH: EVQLVQSGAEVKKPGASVKVSCKASGYTFTSYGISWVRQAPGQGLEWMGEIYPRSGNTYYNEKFKGRVTMTTDTSTSTAYMELRSLRSDDTAVYYCARSGPITTLVATDYGMDYWGQGTTVTVSS VL: DIVMTQSPDSLAVSLGERATINCRASKSVSTSSYSYMHWYQQKPGQPPKLLIKFASNLESGVPDRFSGSGSGTDFTLTISSLQAEDVAVYYCQHSREFPYTFGGGTKVEIK | OD450 nm | 1.54
c97A3C2H4 (antibody, V domains shown, also called chimeric antibody c97A3C2H4) VH: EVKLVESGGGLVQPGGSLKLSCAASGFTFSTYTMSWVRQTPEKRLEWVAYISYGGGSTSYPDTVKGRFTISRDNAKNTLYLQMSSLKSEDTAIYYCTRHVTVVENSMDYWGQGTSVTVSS VL: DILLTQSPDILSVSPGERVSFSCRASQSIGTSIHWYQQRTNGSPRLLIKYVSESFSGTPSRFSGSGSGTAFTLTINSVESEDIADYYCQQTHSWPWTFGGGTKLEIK | OD450 nm | 1.47
c8E7D9C7F5 (antibody, V domains shown, also called chimeric antibody c8E7D9C7F5) VH: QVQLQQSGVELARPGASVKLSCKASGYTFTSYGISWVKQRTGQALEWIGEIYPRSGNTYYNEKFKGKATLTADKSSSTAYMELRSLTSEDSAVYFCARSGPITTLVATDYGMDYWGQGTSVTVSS VL: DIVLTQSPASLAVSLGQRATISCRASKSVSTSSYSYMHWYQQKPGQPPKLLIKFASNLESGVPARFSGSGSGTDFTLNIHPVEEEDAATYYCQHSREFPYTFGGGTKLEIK | OD450 nm | 1.56
h97A3C2H4-9 (antibody, V domains shown, Humanized antibody; VH3-7/JH6 CDR-grafted with A93T, G44R; also called humanized BLyS antibody h97A3C2H4 variant 9 (VH.1b / Vk.1d)) VH: EVQLVESGGGLVQPGGSLRLSCAASGFTFSTYTMSWVRQAPGKRLEWVAYISYGGGSTSYPDTVKGRFTISRDNAKNSLYLQMNSLRAEDTAVYYCTRHVTVVENSMDYWGQGTTVTVSS VL: DILLTQSPDFQSVTPKEKVTITCRASQSIGTSIHWYQQKTDQSPKLLIKYVSESFSGTPSRFSGSGSGTDFTLTINSLEAEDAATYYCQQTHSWPWTFGGGTKVEIK | OD450 nm | 1.56
